viability at 28.5 h, 10 µM listing for selected molecules.
Experimental protocol: in vitro
Details: human, hela cells, % viability
Write the number in % without appending the unit.

Please list viability at 28.5 h, 10 µM recorded for the molecule c1ccc(OCCN2CCCN(c3nccc(OCCN4CCOCC4)n3)CC2)cc1 110

Others:
Please list viability at 28.5 h, 10 µM recorded for the molecule COc1cncc(-c2cnc(N)c(NC3CCOCC3)n2)c1 85.7

Please list viability at 28.5 h, 10 µM recorded for the molecule CSc1nc(N)nc(SC(C(=O)O)c2ccccc2)c1C#N (stereo not drawn) 93.4

Please list viability at 28.5 h, 10 µM recorded for the molecule Cc1ccc(-c2ccc(N3CCN(C)CC3)nc2)cc1C 93.7

Please list viability at 28.5 h, 10 µM recorded for the molecule CC(NC(=O)CC1(N2CCOCC2)CCCC1)c1cccc(C#N)c1 (stereo not drawn) 106

Please list viability at 28.5 h, 10 µM recorded for the molecule CCOC(=O)N1CCC(NC(=O)N(Cc2cccnc2)Cc2ccc3c(c2)OCO3)CC1 95.4

Please list viability at 28.5 h, 10 µM recorded for the molecule Cc1ccc(NC(=O)Cn2cnc3c(-c4ccccc4)csc3c2=O)cc1 104

Please list viability at 28.5 h, 10 µM recorded for the molecule O=C(O)C(Cc1cc2ccccc2[nH]1)N1C(=O)C2CC=C(Cl)CC2C1=O (stereo not drawn) 94.2

Please list viability at 28.5 h, 10 µM recorded for the molecule O=C(O)[C@H]1CN(C(=O)c2ccco2)C[C@@H]1c1ccc(F)cc1 105
